# target or system: M3 muscarinic receptors (Homo sapiens, UniProt P20309)
# Construct: expressed in transfected cells; host or cells: CHO cells
# Sequence (P20309 whole entry): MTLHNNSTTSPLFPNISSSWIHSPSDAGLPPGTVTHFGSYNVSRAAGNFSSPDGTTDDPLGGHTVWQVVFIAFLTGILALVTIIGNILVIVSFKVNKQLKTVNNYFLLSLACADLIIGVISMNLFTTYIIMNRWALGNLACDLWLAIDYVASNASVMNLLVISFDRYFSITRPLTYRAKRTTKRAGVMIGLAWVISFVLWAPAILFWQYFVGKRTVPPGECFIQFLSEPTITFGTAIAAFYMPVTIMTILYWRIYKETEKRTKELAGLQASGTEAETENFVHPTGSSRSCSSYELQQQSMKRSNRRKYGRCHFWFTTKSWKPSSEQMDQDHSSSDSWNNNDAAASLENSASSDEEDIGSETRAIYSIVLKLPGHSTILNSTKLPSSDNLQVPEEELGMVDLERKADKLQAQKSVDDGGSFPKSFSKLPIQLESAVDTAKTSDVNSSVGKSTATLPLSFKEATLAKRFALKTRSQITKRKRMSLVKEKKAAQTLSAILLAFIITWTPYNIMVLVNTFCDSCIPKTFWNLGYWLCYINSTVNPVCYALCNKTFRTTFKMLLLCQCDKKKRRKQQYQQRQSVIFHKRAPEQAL
# assay text: Radioligand binding assay, muscarinic M3 receptors
# applied conditions: test compound 1×10^−6 M
recorded endpoint: inhibition at 1 µM (%)
Hi! Could you send only the number? It should be in %, unit omitted.

Name the recorded inhibition at 1 µM for Cc1cc(S(=O)(=O)NC2CCN(CCCc3noc4cc(F)ccc34)C2)c(C)s1 (centres unmarked) [Compound 221] .
12

Now this one: Cc1c(S(=O)(=O)N[C@@H]2CCN(CCCc3noc4cc(F)ccc34)C2)sc2ccc(F)cc12 [Compound 202]
9

Field entry: Cc1cc(S(=O)(=O)N[C@H]2CCN(CCCc3noc4cc(F)ccc34)C2)c(C)s1 [Compound 223]
25

Entry to check: O=S(=O)(NC1CCN(CCOc2nsc3ccccc23)C1)c1ccc2ccccc2c1 (centres unmarked) [Compound 39]
19

Next record, please: O=S(=O)(NCC1CCN(CCCc2noc3cc(F)ccc23)C1)c1ccc(-c2ccccc2)cc1 (centres unmarked) [Compound 241]
19
